Measured log10 of IC50, listed per entry for reference.
TARGET: Recombinant human integrin αVβ6 (Homo sapiens, UniProt P06756+P18564)
Sequence (P06756 31-992 limits assumed): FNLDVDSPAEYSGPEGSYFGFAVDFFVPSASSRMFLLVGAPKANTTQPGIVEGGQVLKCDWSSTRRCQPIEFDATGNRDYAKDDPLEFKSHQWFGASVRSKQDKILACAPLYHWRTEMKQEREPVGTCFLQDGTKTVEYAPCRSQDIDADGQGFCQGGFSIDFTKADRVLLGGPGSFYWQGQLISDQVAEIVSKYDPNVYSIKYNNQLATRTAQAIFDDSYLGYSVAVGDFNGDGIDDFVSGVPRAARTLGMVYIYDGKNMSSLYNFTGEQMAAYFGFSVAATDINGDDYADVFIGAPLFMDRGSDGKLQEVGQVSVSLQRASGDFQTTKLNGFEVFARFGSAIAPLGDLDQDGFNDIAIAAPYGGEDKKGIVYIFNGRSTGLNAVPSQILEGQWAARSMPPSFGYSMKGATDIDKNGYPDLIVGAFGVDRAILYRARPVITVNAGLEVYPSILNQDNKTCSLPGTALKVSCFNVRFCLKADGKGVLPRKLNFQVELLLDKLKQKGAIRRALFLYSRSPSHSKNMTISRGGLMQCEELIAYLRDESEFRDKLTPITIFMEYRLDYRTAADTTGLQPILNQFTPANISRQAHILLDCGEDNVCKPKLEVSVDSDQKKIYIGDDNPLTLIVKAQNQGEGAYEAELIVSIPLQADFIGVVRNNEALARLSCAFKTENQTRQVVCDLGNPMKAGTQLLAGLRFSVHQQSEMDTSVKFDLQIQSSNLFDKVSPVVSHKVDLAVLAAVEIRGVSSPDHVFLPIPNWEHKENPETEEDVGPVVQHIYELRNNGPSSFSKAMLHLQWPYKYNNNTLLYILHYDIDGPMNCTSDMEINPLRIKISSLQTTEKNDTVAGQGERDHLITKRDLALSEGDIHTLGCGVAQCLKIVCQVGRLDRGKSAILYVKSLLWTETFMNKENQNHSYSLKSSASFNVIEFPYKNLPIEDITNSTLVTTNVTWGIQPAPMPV
Sequence (P18564 22-707 limits assumed): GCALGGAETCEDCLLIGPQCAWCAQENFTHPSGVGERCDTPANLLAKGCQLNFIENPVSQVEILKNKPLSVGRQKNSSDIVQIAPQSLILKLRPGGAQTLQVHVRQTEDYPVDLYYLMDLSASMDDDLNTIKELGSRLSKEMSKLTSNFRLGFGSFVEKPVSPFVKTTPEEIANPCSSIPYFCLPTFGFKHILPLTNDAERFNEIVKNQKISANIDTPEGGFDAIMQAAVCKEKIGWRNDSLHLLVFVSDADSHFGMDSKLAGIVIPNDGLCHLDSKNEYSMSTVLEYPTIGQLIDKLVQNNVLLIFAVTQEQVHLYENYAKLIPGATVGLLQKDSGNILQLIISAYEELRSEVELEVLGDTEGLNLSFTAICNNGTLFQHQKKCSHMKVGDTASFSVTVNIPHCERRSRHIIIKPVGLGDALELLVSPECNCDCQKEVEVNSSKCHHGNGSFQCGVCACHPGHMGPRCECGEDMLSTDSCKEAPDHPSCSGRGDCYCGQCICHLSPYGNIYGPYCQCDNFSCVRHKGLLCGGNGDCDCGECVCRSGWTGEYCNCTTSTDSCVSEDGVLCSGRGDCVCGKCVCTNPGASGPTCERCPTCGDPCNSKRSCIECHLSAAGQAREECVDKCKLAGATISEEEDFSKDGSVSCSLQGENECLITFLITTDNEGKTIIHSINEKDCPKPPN
EXPERIMENTAL_PROTOCOL: Solid Phase Receptor Assay (SPRA) for αVβ6 function
PROTOCOL_CONDITIONS: plate-bound human LAP
Where a name gives a salt, the structure may show the parent alone.
The common logarithm of IC50 in nM is what is listed.

COMPOUND	TARGET	log10 of IC50
CC(C)(C)c1ccc(Br)c(C(CC(=O)O)Cc2csc(CCCc3ccc4c(n3)NCCC4)n2)c1 (stereo not shown) [Example 34]	Recombinant human integrin αVβ6 (Homo sapiens, UniProt P06756+P18564)	3.53

Note to self: log10 of IC50 recorded for COc1ccc(C(CC(=O)O)Cc2cc(OCCc3ccc4c(n3)NCCC4)n(C)n2)cc1F (stereo not shown) [Example 44] was 1.64

Note to self: log10 of IC50 recorded for COc1ccc(C2(C(F)F)CC2)cc1C(CC(=O)O)Cc1csc(CCCc2ccc3c(n2)NCCC3)n1 (stereo not shown) [Example 36] was 2.08

Note to self: log10 of IC50 recorded for COc1ccc(C2=CCOCC2)cc1[C@@H](CC(=O)O)Cc1csc(CCCc2ccc3c(n2)NCCC3)n1 [Example 37B, trifluoroacetate] was 3.48

Note to self: log10 of IC50 recorded for COc1ccc(C(F)(F)F)cc1C(CC(=O)O)Cc1csc(CCCc2ccc3c(n2)NCCC3)n1 (stereo not shown) [Example 35] was 2.30

Note to self: log10 of IC50 recorded for Cn1nc(CC(CC(=O)O)c2cc(C(C)(C)C#N)cc(C(C)(C)C#N)c2)cc1OCCc1ccc2c(n1)NCCC2 (stereo not shown) [Example 41, trifluoroacetate] was 1.57

Recorded values, source patent US20210284638A1.
